Target: fVIIa/TF (Homo sapiens)
Construct: Single-chain fVII may be converted to two-chain fVIIa by factor Xa, factor XIIa, factor IXa, fVIIa or thrombin in vitro
Sequence (P08709 213-466 limits assumed): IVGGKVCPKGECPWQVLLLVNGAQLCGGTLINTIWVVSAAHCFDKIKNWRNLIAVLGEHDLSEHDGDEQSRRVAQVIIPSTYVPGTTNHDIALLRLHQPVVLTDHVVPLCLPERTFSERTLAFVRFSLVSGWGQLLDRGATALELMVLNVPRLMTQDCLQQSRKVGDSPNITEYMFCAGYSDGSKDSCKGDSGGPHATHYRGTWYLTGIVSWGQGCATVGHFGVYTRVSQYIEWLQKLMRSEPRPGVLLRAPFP
Sequence (P08709 61-212 limits assumed): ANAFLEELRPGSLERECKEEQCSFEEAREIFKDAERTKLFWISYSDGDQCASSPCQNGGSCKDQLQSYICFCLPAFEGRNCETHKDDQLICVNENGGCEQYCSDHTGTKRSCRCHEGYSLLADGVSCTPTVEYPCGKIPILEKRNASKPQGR
Sequence (P13726 33-295 partner): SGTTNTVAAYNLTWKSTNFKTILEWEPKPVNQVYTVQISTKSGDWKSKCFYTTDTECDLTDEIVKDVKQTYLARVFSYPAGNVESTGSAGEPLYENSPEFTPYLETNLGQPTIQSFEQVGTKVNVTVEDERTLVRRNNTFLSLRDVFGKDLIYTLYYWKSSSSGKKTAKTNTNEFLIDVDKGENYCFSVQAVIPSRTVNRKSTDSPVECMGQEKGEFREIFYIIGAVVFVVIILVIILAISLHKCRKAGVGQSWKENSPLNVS
Assay: fX activation assay
Conditions: 100 pM fVIIa, 5 pM TF, 175 nM fX, 5-min incubation, S-2765 substrate, read-out: IC50 TF/FVII/FX

[
  {
    "Smiles Structure": "O=c1oc(-c2ccccc2F)nc2ccc(C(F)(F)F)cc12",
    "IC50 [nM]": 3100
  },
  {
    "Smiles Structure": "O=c1oc(-c2ccccc2[N+](=O)[O-])nc2cccc([N+](=O)[O-])c12",
    "IC50 [nM]": 320
  },
  {
    "Smiles Structure": "O=c1oc(-c2cccnc2Cl)nc2cccc([N+](=O)[O-])c12",
    "IC50 [nM]": 2800
  }
]
